Value source: PubChem BioAssay (NCI)

- System: CCRF-CEM leukemia
- experiment notes: NCI-60 one-dose screen, 48 h
- condition parameters: 10 µM unless noted
Compounds without any hit were thinned out: in the full panel of roughly 83,000, 20% have a hit. Active and inactive are the calls of the source. Rule for the calls: active = growth percent below 10; inactive = the rest.
Write down the outcome that applies. Available outcomes: t (active), f (inactive)

| compound | assigned category |
| --- | --- |
| CCOc1ccc(-n2nc(C(=O)Nc3ccccc3)nc2-c2cc(OC)c(OC)c(OC)c2)cc1 | f |
| O=C1c2ccccc2OC=C(c2ccccc2)N1CCCCNc1ccc(S(=O)(=O)Nc2ncccn2)cc1 | f |

Incoming: Assay outcome for COc1cc2c(cc1-c1c(C)noc1C)ncc1nc(C3CCCC3)n([C@H](C)COC(F)F)c12 : what was it?
Outgoing: f

Incoming: Assay outcome for Cn1nc(N)c2cc([C@@H]3Nc4ccc5[nH]ncc5c4[C@H]4C5CCC(C5)[C@@H]34)ccc21 (some centres undefined) : what was it?
Outgoing: f

Incoming: Assay outcome for Nc1ccn(-c2ccc(Br)cc2)c(=O)n1 : what was it?
Outgoing: t

Incoming: Assay outcome for CC(=O)O[C@H]1CC[C@]2(C)[C@H]3CC=C4[C@@H]5CC(C)(C)CC[C@]5(C(=O)NCCNCCNCCN)CC[C@@]4(C)[C@]3(C)CC[C@H]2C1(C)C : what was it?
Outgoing: t

Incoming: Assay outcome for Cc1cc(N[C@@H]2CCC[C@H](Nc3ccnc4cc(Cl)ccc34)C2)nc(N2CCCCCC2)n1 : what was it?
Outgoing: t

Incoming: Assay outcome for CCOC(=O)c1sc2nc(-c3cccc(OC)c3)nc(N3CCOCC3)c2c1C : what was it?
Outgoing: f

Incoming: Assay outcome for CCC(=O)c1ccc(Cl)s1 : what was it?
Outgoing: f

###

- Tested on: RXF 393 renal
- experiment notes: NCI-60 one-dose screen, 48 h
- condition parameters: 10 µM unless noted
This is part of a sample that, as a whole, favours compounds with a hit. Of some 83,000 tested, about 20% had one in any assay. Active and inactive are the calls of the source. Rule for the calls: active = growth percent below 10; inactive = the rest.
Write down the outcome that applies. Available outcomes: label 1 for active, label 0 for inactive

Known results for molecules:
| molecule | measured target | assigned category |
| --- | --- | --- |
| O=C(/C=C/c1ccccc1)c1ccc(O)c(CN2CCN(c3cc4c(cc3F)c(=O)c(C(=O)O)cn4C3CC3)CC2)c1 | RXF 393 renal | label 0 |
| COc1cc2c(cc1O)CC[C@@H]1[C@@H]2CC[C@]2(C)[C@@H](OCCCN(C)C)CC[C@@H]12 | RXF 393 renal | label 1 |
| COC[C@H](C)n1c(C2CCOCC2)nc2cnc3cc(-c4c(C)noc4C)c(OC)cc3c21 | RXF 393 renal | label 0 |

Incoming: Assay outcome for COCCNc1ccc2c3c(cccc13)C(=O)N(CCN(C)C)C2=O : what was it?
Outgoing: label 1

Incoming: Assay outcome for C=C1C(=O)O[C@H]2[C@H]1CC/C(COC(=O)c1cc3cc(OC)ccc3[nH]1)=C\CC[C@@]1(C)O[C@@H]21 : what was it?
Outgoing: label 1

Incoming: Assay outcome for Nc1n[nH]c2ccc([C@@H]3Nc4cc5c(cc4[C@H]4C6CCC(C6)[C@@H]34)C(=O)NC5)cc12 (some centres undefined) : what was it?
Outgoing: label 0

Incoming: Assay outcome for CCn1c(Cc2ccccc2Nc2c(Cl)cccc2Cl)nnc1SCC(=O)NN1C(=O)/C(=C/c2cc(OC)c(O)c(OC)c2)SC1=S : what was it?
Outgoing: label 0

Incoming: Assay outcome for O=C1OC(c2ccccc2)C(O)=C1c1ccccc1 (centres undefined) : what was it?
Outgoing: label 0

Incoming: Assay outcome for Cc1ccc2c(C(C[N+](=O)[O-])c3ccccc3)c(-c3ccccc3)[nH]c2c1 (centres undefined) : what was it?
Outgoing: label 1

Incoming: Assay outcome for O=C1/C(=C/c2ccc(OCCCOc3ccc(Cl)cc3)cc2)N=C2SCCCN12 : what was it?
Outgoing: label 0

Incoming: Assay outcome for CC(=O)O[C@H]1CC[C@]2(C)[C@H]3CC=C4[C@@H]5CC(C)(C)CC[C@]5(C(=O)NCCNCCN)CC[C@@]4(C)[C@]3(C)CC[C@H]2C1(C)C : what was it?
Outgoing: label 0

Incoming: Assay outcome for O=C(N=Nc1c(O)[nH]c2ccc(Br)cc12)c1cc(-c2ccccc2)on1 : what was it?
Outgoing: label 0

Incoming: Assay outcome for O=C1NC(=S)N[C@H]1CC(=O)n1cnc2ccccc21 : what was it?
Outgoing: label 0

Incoming: Assay outcome for COc1cc2c(cc1-c1c(C)noc1C)ncc1nc(C3CCC(F)(F)CC3)n([C@H](C)COC(F)F)c12 : what was it?
Outgoing: label 0

###

# growth listing for each entry below
- Tested on: U251 CNS
- experiment notes: NCI-60 one-dose screen, 48 h (100 = growth as untreated, 0 = no growth, -100 = all killed)
- condition parameters: 10 µM unless noted
This is part of a sample that, as a whole, favours compounds with a hit. Of some 83,000 tested, about 20% had one in any assay.
API: value field is a number in %; no unit string.

Take a look at these entries with their results.
| molecule | measured result |
| --- | --- |
| C=C1C(=O)O[C@H]2[C@H]1CC/C(COC(=O)c1cc3cc(OC)ccc3[nH]1)=C\CC[C@@]1(C)O[C@@H]21 | -97.7 |
| COc1nc2c(c(=O)n1C)CN(Cc1ccccc1)C=N2 | 115 |
| O=c1cc(CSc2nnc(-c3ccc(F)cc3)o2)c2ccc3ccccc3c2o1 | 102 |
| Cc1cc(N2CCCCCC2)nc(NC2CCCC(Nc3ccnc4cc(Cl)ccc34)C2)n1 (configuration not stated) | -94.8 |
| O=C(Cc1ccc(/C=C/C(=O)c2ncc[nH]2)cc1)Nc1ccccc1 | 11.3 |
| CC1=C(O)C(=O)C(C(C#N)(C#N)C(C#N)C#N)C1 (configuration not stated) | 113 |

# evaluate next
Incoming: Fill in reported growth for this entry: Cc1ccc2c(c1)C(=O)/C(=C/c1cccc(OCC(=O)c3ccc(Cl)cc3)c1)CS2
Outgoing: 89.7

###

- Tested on: SK-MEL-2 melanoma
- experiment notes: NCI-60 one-dose screen, 48 h
- condition parameters: 10 µM unless noted
About 83,000 compounds went through this panel and 20% of them were active in at least one assay; those are over-represented in the sample as a whole. Calls of active or inactive are those of the source. Rule for the calls: active = growth percent below 10; inactive = the rest.
Write down the outcome that applies. Available outcomes: Y (active), N (inactive)

| compound | assigned category |
| --- | --- |
| COc1ccc(-n2nc(C)c3c(Nc4ccc(NC(=O)Nc5ccc(Cl)c(C(F)(F)F)c5)cc4)ncnc32)cc1 | Y |

Incoming: Assay outcome for Cn1cc(C(=O)c2nc(-c3c[nH]c4ccc(F)cc34)no2)c2cc(F)ccc21 : what was it?
Outgoing: N

Incoming: Assay outcome for CCN1CCN(c2nc(NCCNc3ccnc4cc(Cl)ccc34)c3ccccc3n2)CC1 : what was it?
Outgoing: Y

Incoming: Assay outcome for CC(=O)O[C@H]1CC[C@]2(C)[C@H]3CC=C4[C@@H]5CC(C)(C)CC[C@]5(C(=O)NCCNCCN)CC[C@@]4(C)[C@]3(C)CC[C@H]2C1(C)C : what was it?
Outgoing: N

Incoming: Assay outcome for O=C(/C=C/C=C/c1ccc2c(c1)OCO2)N/N=C\c1ccc(O)cc1O : what was it?
Outgoing: N

Incoming: Assay outcome for COc1ccc(SC2c3ccc(C)cc3Oc3nc(N)c(C#N)c(N)c32)cc1 (stereo not given) : what was it?
Outgoing: Y

Incoming: Assay outcome for C#CCOc1ccc2ncnc(N3CCC(NC(=O)CCl)CC3)c2c1 : what was it?
Outgoing: N

Incoming: Assay outcome for COc1ccc2cc(-c3nn(-c4ccc(C(=O)O)cc4)cc3CO)ccc2c1 : what was it?
Outgoing: N

Incoming: Assay outcome for CCC([N+](=O)[O-])S(=O)(=O)c1ccc(C)cc1 (stereo not given) : what was it?
Outgoing: N

###

- Tested on: NCI-H322M lung
- experiment notes: NCI-60 one-dose screen, 48 h
- condition parameters: 10 µM unless noted
This is part of a sample that, as a whole, favours compounds with a hit. Of some 83,000 tested, about 20% had one in any assay. Active and inactive are the calls of the source. Rule for the calls: active = growth percent below 10; inactive = the rest.
Write down the outcome that applies. Available outcomes: active, inactive

| compound | assigned category |
| --- | --- |
| CCOC(=O)c1c(C)oc2ncnc(N3CCN(C(=O)COc4ccc(SC)cc4)CC3)c12 | inactive |
| COc1ccc(CN2c3ccccc3Sc3ccccc32)cc1O | inactive |
| O=C1c2cccc3cccc(c23)C(=O)N1CCCCN1CCN(CCCCOc2ccc(-c3nc4ccc(N5CCOCC5)cc4[nH]3)cc2)CC1 | inactive |
| COc1ccc(-n2nc(C)c3c(Nc4ccc(NC(=O)Nc5cc(C(F)(F)F)ccc5F)cc4)ncnc32)cc1 | inactive |
| COc1ccc(-c2nc3ccc(-c4nc5ccc(N6CCN(c7ccncc7)CC6)cc5[nH]4)cc3[nH]2)cc1OC | inactive |

Incoming: Assay outcome for COc1cc2c(cc1-c1c(C)noc1C)ncc1nc(C3CCC(F)(F)CC3)n([C@H](C)COC(F)F)c12 : what was it?
Outgoing: inactive

Incoming: Assay outcome for O=S(=O)(Nc1ccc(OC(F)F)cc1)c1ccc(-c2cnc(C3CC3)o2)cc1 : what was it?
Outgoing: inactive

Incoming: Assay outcome for COc1ccc(C(=O)COc2ccc(/C=C3\COc4ccc(OC)cc4C3=O)cc2)cc1 : what was it?
Outgoing: inactive

Incoming: Assay outcome for Nc1ccc(-c2cc3c(Nc4ccc(Oc5cccc(C(F)(F)F)c5)c(Cl)c4)ncnc3s2)cc1 : what was it?
Outgoing: inactive

Incoming: Assay outcome for CN1CCN(CCCOc2cccc3nc(Nc4cc(Cl)cc(Cl)c4)ccc23)CC1 : what was it?
Outgoing: active

Incoming: Assay outcome for CCOC(=O)c1sc2nc(-c3cccc(OC)c3)nc(N3CCOCC3)c2c1C : what was it?
Outgoing: inactive

Incoming: Assay outcome for COC(=O)c1ccc(NC(=O)c2ccc(-c3cccc([N+](=O)[O-])c3)o2)cc1 : what was it?
Outgoing: inactive

Incoming: Assay outcome for Fc1ccc(CNc2cccc3[nH]c(C(F)(F)F)nc23)cc1 : what was it?
Outgoing: inactive

Incoming: Assay outcome for Cc1ccc2c(C(C[N+](=O)[O-])c3ccccc3)c(-c3ccccc3)[nH]c2c1 (centres undefined) : what was it?
Outgoing: inactive

Incoming: Assay outcome for CC1CCNC(C)C1 (centres undefined) : what was it?
Outgoing: inactive
